testSystem: Protein farnesyltransferase alpha subunit/subunit beta (Trypanosoma brucei brucei, UniProt Q9NC76+Q9NC77)
Sequence (Q9NC77 whole entry): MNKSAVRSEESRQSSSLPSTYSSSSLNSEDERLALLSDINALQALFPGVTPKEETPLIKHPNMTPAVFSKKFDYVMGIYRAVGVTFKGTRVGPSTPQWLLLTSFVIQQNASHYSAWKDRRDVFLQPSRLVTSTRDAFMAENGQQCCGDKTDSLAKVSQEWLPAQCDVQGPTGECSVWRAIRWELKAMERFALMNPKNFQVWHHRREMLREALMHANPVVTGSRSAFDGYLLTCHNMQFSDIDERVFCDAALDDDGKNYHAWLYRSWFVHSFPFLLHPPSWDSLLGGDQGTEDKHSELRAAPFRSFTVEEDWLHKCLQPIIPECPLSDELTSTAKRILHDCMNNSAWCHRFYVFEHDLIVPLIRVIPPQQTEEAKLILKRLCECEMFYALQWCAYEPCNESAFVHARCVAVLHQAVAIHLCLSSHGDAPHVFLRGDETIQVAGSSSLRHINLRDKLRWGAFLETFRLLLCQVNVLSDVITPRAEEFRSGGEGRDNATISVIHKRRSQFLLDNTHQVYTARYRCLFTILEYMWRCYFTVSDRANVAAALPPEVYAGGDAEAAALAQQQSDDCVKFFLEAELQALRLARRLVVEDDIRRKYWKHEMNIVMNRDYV
Sequence (Q9NC76 whole entry): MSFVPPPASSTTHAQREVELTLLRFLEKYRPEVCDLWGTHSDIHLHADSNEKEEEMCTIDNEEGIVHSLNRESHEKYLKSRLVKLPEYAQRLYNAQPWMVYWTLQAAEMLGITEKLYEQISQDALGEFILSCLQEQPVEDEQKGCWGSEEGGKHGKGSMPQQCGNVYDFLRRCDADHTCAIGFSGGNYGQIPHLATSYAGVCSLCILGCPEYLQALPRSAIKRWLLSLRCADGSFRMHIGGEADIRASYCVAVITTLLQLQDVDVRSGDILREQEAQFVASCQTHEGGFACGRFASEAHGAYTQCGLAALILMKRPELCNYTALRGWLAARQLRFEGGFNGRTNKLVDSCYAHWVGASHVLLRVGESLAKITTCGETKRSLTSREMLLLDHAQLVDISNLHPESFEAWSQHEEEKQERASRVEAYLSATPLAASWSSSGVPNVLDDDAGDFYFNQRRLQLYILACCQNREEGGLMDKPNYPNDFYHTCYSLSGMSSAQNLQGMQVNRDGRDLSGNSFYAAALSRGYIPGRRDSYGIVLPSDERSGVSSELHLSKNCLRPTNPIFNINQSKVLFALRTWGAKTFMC
assaySummary: T. brucei FTase Assay
Protocol: Assays were realized on 96-well plates, as described for human FTase with the dansylated peptide Dansyl-GCAIM and the solution contains 15 μL of partially purified Tb-FTase (1.0 mg/mL) in 1 mL peptide solution.
pIC50: −log10 of the molar value.
Decide by pIC50: equal to or exceeding 5 means true (1), less means false (0).

Can CC(C)Sc1sc(C(=O)O)c(-c2ccccc2F)c1C#N be said to have pIC50 at or above 5?
false (0)

Can COC(=O)c1cccc(-c2c(C(=O)O)sc(SC(C)C)c2C#N)c1 be said to have pIC50 at or above 5?
true (1)

Can CC(C)Sc1sc(C(=O)O)c(-c2ccccc2)c1C#N be said to have pIC50 at or above 5?
false (0)

Can COc1cccc(-c2c(C(=O)O)sc(SC(C)C)c2C#N)c1 be said to have pIC50 at or above 5?
false (0)

Can CC(C)Sc1sc(C(=O)O)c(-c2ccc(-c3ccccc3)cc2)c1C#N be said to have pIC50 at or above 5?
false (0)

Can CC(C)Sc1sc(C(=O)O)c(-c2cccc(C(F)(F)F)c2)c1C#N be said to have pIC50 at or above 5?
false (0)

Can CC(C)Sc1sc(C(=O)O)c(-c2cccc(-c3ccccc3)c2)c1C#N be said to have pIC50 at or above 5?
true (1)

Can Cc1ccc(-c2c(C(=O)O)sc(SC(C)C)c2C#N)cc1 be said to have pIC50 at or above 5?
false (0)

Can COc1ccccc1-c1c(C(=O)O)sc(SC(C)C)c1C#N be said to have pIC50 at or above 5?
false (0)

Can CSCC[C@H](NC(=O)c1ccc(NC[C@@H](N)CS)cc1-c1ccccc1)C(=O)O be said to have pIC50 at or above 5?
true (1)

Can CC(C)Sc1sc(C(=O)O)c(-c2ccccc2Cl)c1C#N be said to have pIC50 at or above 5?
false (0)
